B1: RIPK4 (parent)
chain: VSVNAQTLDGRTPLHLAAQRGHYR

Variants of: B1
Experiment: protein stability index of a GFP-peptide fusion (GPS, HEK-293T) (PSI 1-6); higher = more stable;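 also: lentivirally expressed fusions sorted by FACS into six bins by GFP to DsRed ratio, PSI derived from sequencing read proportions per bin multiplied by bin number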
Conditions: c terminus: a fixed tail appended
property: protein stability index
API note: the answer field is a bare number with no unit suffix.

Q6A
3.43
S2H
2.42
V3S
3.97

Next item in the queue.
Ask: Which protein stability index is reported for this variant? "A18H"
Result: 3.13

Source: the supplement of paper PMC10567573
